The measured values listed here are drawn from the supplement of paper PMC10126150.

# Test system: ATP;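 note: ATP exposure 15 min at 22 °C before imaging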
# assayProcedure: switch fluorescence ratio, 500 uM ATP over buffer (Cy3 cluster intensity, sum of 5 cycles each) (fold (ratio)); higher = stronger signal-on switching upon ATP binding; sequences stand for … in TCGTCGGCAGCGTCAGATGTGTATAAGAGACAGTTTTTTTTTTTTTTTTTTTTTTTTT…TC
# runParameters: aptamer strand: ATP DNA aptamer (quencher-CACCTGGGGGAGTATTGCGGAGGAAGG + anchor), 100 nM annealed; ATP concentration: 500 uM
Answer each item with its documented switch fluorescence ratio.
The answer should be a number; do not append a unit.

Exercise: Name the recorded switch fluorescence ratio of the item "TGGCGGTAGT" in your answer.
Key: 1.06

Exercise: Return switch fluorescence ratio for the following sequence: "AGGGGTTAAA"
Key: 1.01

Exercise: Provide one value: measured switch fluorescence ratio of "CGGTCGAGGA"
Key: 0.988

Exercise: Kindly indicate its recorded switch fluorescence ratio. Item: "TGGGGACGGT"
Key: 1.01

Exercise: Give switch fluorescence ratio for "ACTACGATAT"
Key: 1.34

Exercise: Answer with the recorded switch fluorescence ratio of "TGCGATTATG" only.
Key: 1.02

Exercise: # return recorded switch fluorescence ratio for input "TTTTTCCCGG"
Key: 1.17

Exercise: Give switch fluorescence ratio for "TACATTCGTC"
Key: 1.07

Exercise: Entry "TCAGATTGGC" needs its switch fluorescence ratio filled in; supply it.
Key: 1.04

Exercise: Give switch fluorescence ratio for "TCGGGGGAGG"
Key: 0.983

Exercise: Give a short answer stating reported switch fluorescence ratio for "AGCGGTTGGG" .
Key: 0.997

Exercise: Please give measured switch fluorescence ratio of the following entry: "AGGTACTCCG"
Key: 1.09

Exercise: Give switch fluorescence ratio for "AAAATGGGCT"
Key: 0.996

Exercise: Look up switch fluorescence ratio of "AAGGGGCCGG" and report it.
Key: 1.01

Exercise: Give a short answer stating reported switch fluorescence ratio for "GGGGGGTGCG" .
Key: 0.999

Exercise: For the sequence "TGAACATTTT" , report switch fluorescence ratio.
Key: 1.07

Exercise: Fill in switch fluorescence ratio for record "CGCGTTGAAA"
Key: 1.04

Exercise: Determine its reported switch fluorescence ratio: "AGGCCGATGG"
Key: 0.983

Exercise: Return reported switch fluorescence ratio. Input sequence: "AGCTATCACG"
Key: 1

Exercise: Assign switch fluorescence ratio to the following record: "AGGGTAAACG"
Key: 0.986

Exercise: Tell me its switch fluorescence ratio given "TATCATGGGA" as the entry.
Key: 0.998

Exercise: Provide one value: measured switch fluorescence ratio of "TAGGGATAGT"
Key: 0.999

Exercise: Please give the documented switch fluorescence ratio of "ACAAATTGGG"
Key: 1.03

Exercise: Could you please provide reported switch fluorescence ratio for "CAACTCTCTG" ? Thanks!
Key: 1

Exercise: Return reported switch fluorescence ratio. Input sequence: "TTTGGTGCGG"
Key: 0.985

Exercise: Give switch fluorescence ratio for "TAGGGGGAAG"
Key: 0.979

Exercise: Please indicate switch fluorescence ratio recorded for "GGCGGCGGGG"
Key: 1.03

Exercise: Consider the sequence "AAGGGGATAT" . State its measured switch fluorescence ratio.
Key: 1.03

Exercise: Name the recorded switch fluorescence ratio of the item "GCTTTAGAGG" in your answer.
Key: 1

Exercise: Look up and report measured switch fluorescence ratio for this entry: "ATAAGATTGC"
Key: 0.991

Exercise: Identify measured switch fluorescence ratio corresponding to "AGTTGGACGC"
Key: 1.07

Exercise: Specify switch fluorescence ratio for "TTTTTTCTG" and stop.
Key: 1.04

Exercise: Recall and state the measured switch fluorescence ratio for "GATGTTTATG" .
Key: 0.975

Exercise: Let me know recorded switch fluorescence ratio for "TTTGGGACGC" , thanks.
Key: 1.05

Exercise: Check the records and state switch fluorescence ratio for "AGTATTAGAA"
Key: 0.978

Exercise: State, in one line, measured switch fluorescence ratio of "TATTTTGTGT"
Key: 0.998

Exercise: Dear colleague, please send me the reported switch fluorescence ratio for "AGGGGGTAAC" when you can.
Key: 1

Exercise: Please give the documented switch fluorescence ratio of "TTATGGGGGA"
Key: 1.01

Exercise: Note down switch fluorescence ratio recorded for "GGAGACGGGT"
Key: 1.02

Exercise: Give switch fluorescence ratio for "TTGTTGTTTT"
Key: 0.995

Exercise: Given "ACATAGTTGG" , respond with its switch fluorescence ratio.
Key: 0.966

Exercise: Specify switch fluorescence ratio for "TTTGTATTAG" and stop.
Key: 1

Exercise: Retrieve switch fluorescence ratio measured for "TCGGTCGACG" and print it.
Key: 0.962

Exercise: Identify switch fluorescence ratio associated with the sequence "ACATCCAATT"
Key: 0.99

Exercise: Give the reported value of switch fluorescence ratio for this record: "AACTTTAGGT"
Key: 0.987

Exercise: Assign switch fluorescence ratio to the following record: "TATCTTACGA"
Key: 1.02

Exercise: // Input: "TGGGAAAGCC" . Output its switch fluorescence ratio only.
Key: 0.981

Exercise: Please report switch fluorescence ratio for the following sequence: "GGGGCAGGGT"
Key: 1.03

Exercise: Return value of switch fluorescence ratio for input "ATAATTGAAG" , no commentary.
Key: 0.99

Exercise: Read off the recorded switch fluorescence ratio for "CTATGTTGGT"
Key: 0.956

Exercise: Recall and state the measured switch fluorescence ratio for "TACTGTGTTA" .
Key: 0.979

Exercise: Identify switch fluorescence ratio associated with the sequence "AAGGTTTCAG"
Key: 0.976

Exercise: Give a short answer stating reported switch fluorescence ratio for "TAAAAGGCGG" .
Key: 1.03

Exercise: Identify measured switch fluorescence ratio associated with "CCAGTACTGA"
Key: 1.02

Exercise: Quote switch fluorescence ratio reported for "TTAAGTTGAT" please.
Key: 0.988

Exercise: Identify switch fluorescence ratio associated with the sequence "AAAAGCGATC"
Key: 1.14

Exercise: Indicate the recorded switch fluorescence ratio value for this sequence: "GTATAAGGTT"
Key: 0.98

Exercise: State its switch fluorescence ratio: "TTTGCGACCT"
Key: 1.13

Exercise: State its switch fluorescence ratio: "AGGAGGCCAG"
Key: 0.969

Exercise: Name the recorded switch fluorescence ratio of the item "GACCATACGC" in your answer.
Key: 1.42

Exercise: Name the recorded switch fluorescence ratio of the item "CTGCAAGGGT" in your answer.
Key: 1.21

Exercise: Recall and state the measured switch fluorescence ratio for "GATGGATGAA" .
Key: 1.02

Exercise: Read the entry "GTCACAGTTG" and write its reported switch fluorescence ratio.
Key: 1.02

Exercise: Name the recorded switch fluorescence ratio of the sequence listed here: "TATTAACGTA"
Key: 1.08

Exercise: Respond only with switch fluorescence ratio recorded for "GAGCAGCATT"
Key: 1.05

Exercise: Answer with the recorded switch fluorescence ratio for the sequence listed here: "ATGGTTTCGC"
Key: 0.993

Exercise: Return switch fluorescence ratio for the following sequence: "GTGACCCCTA"
Key: 1.13

Exercise: Read the entry "AAGTTGCTGG" and write its reported switch fluorescence ratio.
Key: 0.985

Exercise: Supply reported switch fluorescence ratio belonging to this sequence: "TCAGCGTGGG"
Key: 1.04

Exercise: Consider the sequence "TGGTTGGGAG" . State its measured switch fluorescence ratio.
Key: 1.01

Exercise: Find the measured switch fluorescence ratio of "CGAGGGGCCA" and report it.
Key: 1

Exercise: Return the recorded switch fluorescence ratio value; entry: "CGTGATTGCT"
Key: 1.03

Exercise: Determine from records and report switch fluorescence ratio for "GGTGTGCCGT"
Key: 0.989

Exercise: Entry "GTTAGTTGTT" needs its switch fluorescence ratio filled in; supply it.
Key: 0.987

Exercise: Tell me measured switch fluorescence ratio for "TGTTGATAGG" please.
Key: 0.982

Exercise: Answer with reported switch fluorescence ratio of "CCGAATAATT"
Key: 1.08

Exercise: Provide switch fluorescence ratio value for the following sequence: "TTCTAGCGAA"
Key: 1.17

Exercise: Please list switch fluorescence ratio recorded for the sequence "GATTAGACAC"
Key: 1.01

Exercise: Give a short answer stating reported switch fluorescence ratio for "TGCTTTAAAG" .
Key: 1

Exercise: Please report the measured switch fluorescence ratio for "CGGTTTTGGG"
Key: 0.977

Exercise: # return recorded switch fluorescence ratio for input "GTCGTGCGTA"
Key: 1.03

Exercise: Look up switch fluorescence ratio of "ATGAGGCAGT" and report it.
Key: 1.12

Exercise: Return value of switch fluorescence ratio for input "TAAACGAGGG" , no commentary.
Key: 1.01

Exercise: Give reported switch fluorescence ratio value for "GAAATGATTC"
Key: 1

Exercise: Give recorded switch fluorescence ratio. "TGCATTTACT"
Key: 1.13

Exercise: Tell me measured switch fluorescence ratio for "TTTAACCCCC" please.
Key: 1.17
